# Tested on: NCI-H2405
# experimentalDetails: relative viability (nuclei count vs DMSO), 5 days (fraction); higher = more cells survive
# experimentalSetup: first compound 0.05 µM
With a cut-off of 0.6, any relative viability strictly below it is called 1; any relative viability meeting it or above is called 0.

COc1cc2nccc(Oc3ccc(NC(=O)Nc4cc(C)on4)c(Cl)c3)c2cc1OC [Tivozanib] + CC(=O)c1c(C)c2cnc(Nc3ccc(N4CCNCC4)cn3)nc2n(C2CCCC2)c1=O [Palbociclib] (partner 0.5 µM): 1
COc1cc2nccc(Oc3ccc(NC(=O)Nc4cc(C)on4)c(Cl)c3)c2cc1OC [Tivozanib] + Cc1cc(Nc2cc(N3CCN(C)CC3)nc(Sc3ccc(NC(=O)C4CC4)cc3)n2)n[nH]1 [Tozasertib] (partner 0.1 µM): 0
Nc1ccn([C@@H]2O[C@H](CO)[C@@H](O)[C@@H]2O)c(=O)n1 [Cytarabine] + COc1cc2c(Oc3ccc(NC(=O)C4(C(=O)Nc5ccc(F)cc5)CC4)cc3F)ccnc2cc1OCCCN1CCOCC1 [Foretinib] (partner 0.25 µM): 0
Nc1ccn([C@@H]2O[C@H](CO)[C@@H](O)[C@@H]2O)c(=O)n1 [Cytarabine] + CC1(C)CCC(c2ccc(Cl)cc2)=C(CN2CCN(c3ccc(C(=O)NS(=O)(=O)c4ccc(N[C@H](CCN5CCOCC5)CSc5ccccc5)c(S(=O)(=O)C(F)(F)F)c4)cc3)CC2)C1 [Navitoclax] (partner 0.5 µM): 1
COc1cc2nccc(Oc3ccc(NC(=O)Nc4cc(C)on4)c(Cl)c3)c2cc1OC [Tivozanib] + N=C(N)NC(=N)NCCc1ccccc1 [Phenformin] (partner 250 µM): 1

Query block: Hello, I'm reviewing records and need to know if relative viability of COc1cc2nccc(Oc3ccc(NC(=O)Nc4cc(C)on4)c(Cl)c3)c2cc1OC [Tivozanib] + CCNC(=O)c1noc(-c2cc(C(C)C)c(O)cc2O)c1-c1ccc(CN2CCOCC2)cc1 [Luminespib] (partner 0.01 µM) is below 0.6. Could you check?
Result block: 0

Query block: Hello, I'm reviewing records and need to know if relative viability of Nc1ccn([C@@H]2O[C@H](CO)[C@@H](O)[C@@H]2O)c(=O)n1 [Cytarabine] + CCNC(=O)c1noc(-c2cc(C(C)C)c(O)cc2O)c1-c1ccc(CN2CCOCC2)cc1 [Luminespib] (partner 0.01 µM) is below 0.6. Could you check?
Result block: 1

Query block: Hello, I'm reviewing records and need to know if relative viability of COc1cc2nccc(Oc3ccc(NC(=O)Nc4cc(C)on4)c(Cl)c3)c2cc1OC [Tivozanib] + COc1cccc2cc(-c3nc([C@H]4CC[C@H](C(=O)O)CC4)n4ncnc(N)c34)[nH]c12 [OSI-027] (partner 0.5 µM) is below 0.6. Could you check?
Result block: 0
